- Tested on: P388 leukemia ip, CD2F1 mice, survival T/C
- measurementNotes: NCI In Vivo Anticancer Drug Screen. Data for tumor model P388 Leukemia (intraperitoneal) in CD2F1 (CDF1) mice
- recordedConditions: endpoint: median survival time; dose: 50.0 mg/kg/injection; schedule: Q01DX005 (ip); vehicle: saline with Tween-80; higher = longer survival
Inconclusive results and toxic doses are left out.
This listing pairs molecules with measured T/C.

| molecule | T/C |
| --- | --- |
| Nc1cc(-c2ccc(Br)cc2)nn1-c1nnc(-c2ccccc2)c(-c2ccccc2)n1 | 101 % of control |
| COC1=C(c2c[nH]c3ccc(CC=C(C)C)cc23)C(=O)C(OC)=C(c2c[nH]c3ccc(CC=C(C)C)cc23)C1=O | 89 % of control |
| CC(C)NC(=O)OCc1c(COC(=O)NC(C)C)c(S(C)(=O)=O)n2c1CCC2 | 86 % of control |
| Cc1c(O)c2ccc(N(C)C)cc2[nH]c1=O | 101 % of control |
| CCN=C(N)Nc1nc(C)c2cc(Cl)ccc2n1 | 109 % of control |
| CC1(CCBr)C(=O)NC(=O)NC1=O | 101 % of control |
| CCOC(=O)CC1=CS/C(=C(/C#N)C(=O)OCC)S1 | 93 % of control |
| CCc1n[nH]c(CC)c1CCCCCCOc1ccc(OC)cc1Cl | 102 % of control |
| CN(C)c1ccc(P(=O)(O)O)cc1 | 96 % of control |
| O=C1c2ccccc2C(=O)N1CC(O)COCc1ccccc1 (stereo unspecified) | 102 % of control |
| CC(=O)OCC1OC(Oc2ccc(C=C(C(C)=O)C(C)=O)cc2)C(OC(C)=O)C(OC(C)=O)C1OC(C)=O (stereo unspecified) | 105 % of control |
